Source: patent US11419806B2

- Test system: Veillonella parvula
- Measurement description: Twenty-four hour optical density growth in BHI
- Format: cell-based
- Measurement context: V parvula; 20 μmol/ml
Parameter: extent of growth: maximal OD630 over 24 hr divided by maximal OD of control (control = 1)
Just the number, please.

Challenge: System Veillonella parvula. Read-out extent of growth: maximal OD630 over 24 hr divided by maximal OD of control (control = 1). Item `O[C@H]1[C@H](O)[C@@H](O)[C@H](O)[C@@H](O)[C@H]1O` . Report value.
Response given: 0.8987

Challenge: System Veillonella parvula. Read-out extent of growth: maximal OD630 over 24 hr divided by maximal OD of control (control = 1). Item `OC[C@H]1O[C@@](O)(CO)[C@@H](O[C@H]2O[C@H](CO)[C@@H](O)[C@H](O)[C@H]2O)[C@@H]1O` . Report value.
Response given: 0.9904

Challenge: System Veillonella parvula. Read-out extent of growth: maximal OD630 over 24 hr divided by maximal OD of control (control = 1). Item `CC(=O)N[C@H](C=O)[C@@H](O)[C@H](O)[C@H](O)CO` . Report value.
Response given: 1.0466

Challenge: System Veillonella parvula. Read-out extent of growth: maximal OD630 over 24 hr divided by maximal OD of control (control = 1). Item `OC[C@@H](O)[C@@H](O[C@H]1O[C@H](CO)[C@H](O)[C@H](O)[C@H]1O)[C@H](O)[C@@H](O)CO` . Report value.
Response given: 0.8909

====

- System: S. salivarius
- Measurement description: Twenty-four hour biofilm growth (crystal violet)
- Format: cell-based
- Measurement context: 20 μmol/ml
Parameter: biofilm growth: OD 630 nm at 24 hrs divided by OD of control (control = 1)
Just the number, please.

Challenge: Look up and state reported biofilm growth: OD 630 nm at 24 hrs divided by OD of control (control = 1) for `OC[C@@H](O)[C@@H](O[C@H]1O[C@H](CO)[C@H](O)[C@H](O)[C@H]1O)[C@H](O)[C@@H](O)CO`
Response given: 5.5726

Challenge: Look up and state reported biofilm growth: OD 630 nm at 24 hrs divided by OD of control (control = 1) for `CC(=O)N[C@H](C=O)[C@@H](O)[C@H](O)[C@H](O)CO`
Response given: 0.3314

Challenge: Look up and state reported biofilm growth: OD 630 nm at 24 hrs divided by OD of control (control = 1) for `O[C@H]1[C@H](O)[C@@H](O)[C@H](O)[C@@H](O)[C@H]1O`
Response given: 0.8119

Challenge: Look up and state reported biofilm growth: OD 630 nm at 24 hrs divided by OD of control (control = 1) for `OC[C@H]1O[C@@](O)(CO)[C@@H](O[C@H]2O[C@H](CO)[C@@H](O)[C@H](O)[C@H]2O)[C@@H]1O`
Response given: 0.8441

====

- Tested on: S. mutans
- Measurement description: Twenty-four hour biofilm growth (crystal violet)
- Assay type: cell-based
- Measurement context: S mutans; 20 μmol/ml
Parameter: biofilm growth: OD 630 nm at 24 hrs divided by OD of control (control = 1)
Just the number, please.

Challenge: Look up and state reported biofilm growth: OD 630 nm at 24 hrs divided by OD of control (control = 1) for `CC(=O)N[C@H](C=O)[C@@H](O)[C@H](O)[C@H](O)CO`
Response given: 0.7015

Challenge: Look up and state reported biofilm growth: OD 630 nm at 24 hrs divided by OD of control (control = 1) for `OC[C@@H](O)[C@@H](O[C@H]1O[C@H](CO)[C@H](O)[C@H](O)[C@H]1O)[C@H](O)[C@@H](O)CO`
Response given: 1.1068

Challenge: Look up and state reported biofilm growth: OD 630 nm at 24 hrs divided by OD of control (control = 1) for `OC[C@H]1O[C@@](O)(CO)[C@@H](O[C@H]2O[C@H](CO)[C@@H](O)[C@H](O)[C@H]2O)[C@@H]1O`
Response given: 1.1403

Challenge: Look up and state reported biofilm growth: OD 630 nm at 24 hrs divided by OD of control (control = 1) for `O[C@H]1[C@H](O)[C@@H](O)[C@H](O)[C@@H](O)[C@H]1O`
Response given: 1.1995

====

- Test system: Capnocytophaga sputigena
- Measurement description: Twenty-four hour optical density growth in BHI
- Assay type: cell-based
- Measurement context: C sputigena; 5 μmol/ml
Give measured extent of growth: maximal OD630 over 24 hr divided by maximal OD of control (control = 1) for each item. Keep answers brief.
Just the number, please.

Challenge: Look up and state reported extent of growth: maximal OD630 over 24 hr divided by maximal OD of control (control = 1) for `OC[C@@H](O)[C@@H](O[C@H]1O[C@H](CO)[C@H](O)[C@H](O)[C@H]1O)[C@H](O)[C@@H](O)CO`
Response given: 0.8996

Challenge: Look up and state reported extent of growth: maximal OD630 over 24 hr divided by maximal OD of control (control = 1) for `O[C@H]1[C@H](O)[C@@H](O)[C@H](O)[C@@H](O)[C@H]1O`
Response given: 0.8701

Challenge: Look up and state reported extent of growth: maximal OD630 over 24 hr divided by maximal OD of control (control = 1) for `OC[C@H]1O[C@@](O)(CO)[C@@H](O[C@H]2O[C@H](CO)[C@@H](O)[C@H](O)[C@H]2O)[C@@H]1O`
Response given: 0.9568

Challenge: Look up and state reported extent of growth: maximal OD630 over 24 hr divided by maximal OD of control (control = 1) for `CC(=O)N[C@H](C=O)[C@@H](O)[C@H](O)[C@H](O)CO`
Response given: 0.9620

====

Give measured metabolic activity: OD 492 nm divided by OD of control (control = 1) for each item. Keep answers brief.
- Tested on: Streptococcus mitis
- Measurement description: Phenotype microarray metabolic activity
- Assay type: cell-based
- Measurement context: S mitis; 24 hrs
Just the number, please.

Challenge: Look up and state reported metabolic activity: OD 492 nm divided by OD of control (control = 1) for `CC(=O)N[C@H](C=O)[C@@H](O)[C@H](O)[C@H](O)CO`
Response given: 3.4298

Challenge: Look up and state reported metabolic activity: OD 492 nm divided by OD of control (control = 1) for `OC[C@H]1O[C@@](O)(CO)[C@@H](O[C@H]2O[C@H](CO)[C@@H](O)[C@H](O)[C@H]2O)[C@@H]1O`
Response given: 1.2969

Challenge: Look up and state reported metabolic activity: OD 492 nm divided by OD of control (control = 1) for `OC[C@H]1O[C@@](CO)(O[C@H]2O[C@H](CO)[C@@H](O)[C@H](O)[C@H]2O)[C@@H](O[C@H]2O[C@H](CO)[C@@H](O)[C@H](O)[C@H]2O)[C@@H]1O`
Response given: 1.1736

Challenge: Look up and state reported metabolic activity: OD 492 nm divided by OD of control (control = 1) for `O[C@H]1[C@H](O)[C@@H](O)[C@H](O)[C@@H](O)[C@H]1O`
Response given: 1.0571

Challenge: Look up and state reported metabolic activity: OD 492 nm divided by OD of control (control = 1) for `OC[C@@H](O)[C@@H](O[C@H]1O[C@H](CO)[C@H](O)[C@H](O)[C@H]1O)[C@H](O)[C@@H](O)CO`
Response given: 1.0047

====

- Test system: Streptococcus mutans
- Measurement description: Twenty-four hour optical density growth in BHI
- Type: cell-based
- Measurement context: S mutans; 25 μmol/ml
Parameter: extent of growth: maximal OD630 over 24 hr divided by maximal OD of control (control = 1)
Just the number, please.

Challenge: Look up and state reported extent of growth: maximal OD630 over 24 hr divided by maximal OD of control (control = 1) for OC[C@@H](O)[C@@H](O[C@H]1O[C@H](CO)[C@H](O)[C@H](O)[C@H]1O)[C@H](O)[C@@H](O)CO [D-Lactitol, 4-O-α-D-galactopyranosyl-D-glucitol]
Response given: 0.9149

Challenge: Look up and state reported extent of growth: maximal OD630 over 24 hr divided by maximal OD of control (control = 1) for O[C@H]1[C@H](O)[C@@H](O)[C@H](O)[C@@H](O)[C@H]1O [Myo-Inositol]
Response given: 0.9449

Challenge: Look up and state reported extent of growth: maximal OD630 over 24 hr divided by maximal OD of control (control = 1) for CC(=O)N[C@H](C=O)[C@@H](O)[C@H](O)[C@H](O)CO [N-acetyl-D-mannosamine, 2-acetamido-2-deoxy-D-mannose]
Response given: 0.8283

Challenge: Look up and state reported extent of growth: maximal OD630 over 24 hr divided by maximal OD of control (control = 1) for OC[C@H]1O[C@@](O)(CO)[C@@H](O[C@H]2O[C@H](CO)[C@@H](O)[C@H](O)[C@H]2O)[C@@H]1O [D-Turanose]
Response given: 0.9121
